# target desc: Hck (UniProt P08631)
# Sequence (P08631 whole entry, looked up): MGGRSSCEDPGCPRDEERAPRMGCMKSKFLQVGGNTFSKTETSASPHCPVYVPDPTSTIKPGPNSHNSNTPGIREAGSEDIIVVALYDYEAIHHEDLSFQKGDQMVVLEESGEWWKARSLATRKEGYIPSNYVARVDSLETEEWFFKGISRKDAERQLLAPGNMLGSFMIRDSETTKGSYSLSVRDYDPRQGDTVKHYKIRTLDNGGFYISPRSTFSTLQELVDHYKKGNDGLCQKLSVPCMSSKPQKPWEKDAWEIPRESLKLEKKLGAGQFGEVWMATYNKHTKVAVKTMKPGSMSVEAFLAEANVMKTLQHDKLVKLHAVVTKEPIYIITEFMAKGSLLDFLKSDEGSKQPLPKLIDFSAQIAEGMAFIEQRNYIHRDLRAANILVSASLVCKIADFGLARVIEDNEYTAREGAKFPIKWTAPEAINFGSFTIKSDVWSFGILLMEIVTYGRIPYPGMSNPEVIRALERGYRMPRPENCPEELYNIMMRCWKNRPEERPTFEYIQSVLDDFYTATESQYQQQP
# assay comment: phosphorylation enrichment, bacterial display (enrichment ratio); higher = better substrate or ligand; peptides without Tyr show the background;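 note: 11-residue human phosphosite peptides and single-mutation variants displayed on the E. coli surface, counted by deep sequencing, each peptide's frequency after selection divided by its frequency in the unselected input library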;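 note: frequency after pTyr selection over input frequency; kinase dosed for 20-30% of maximal phosphorylation in three min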
Returns MET if the recorded phosphorylation enrichment is greater than or equal to 0.6, and NOT MET otherwise.

* FNSLPYQVPTS [CALCOCO2_Y358] | NOT MET
* LKTNWYNNGKD [DNMT3B_Y404_C403W] | MET
* YRDALYKFIVD [PHEX_Y250_M253I] | MET
* KDHPDYKFQLR [SOX10_Y171_P175L_YF] | NOT MET
* RLNWIYYKDQT [RS1_Y165] | MET
* GREEFYVHYVG [KAT8_Y90] | NOT MET
* GEDDVYDSVPG [FGR_opt_2018] | MET
* MANYMYKAGPS [MAML2_Y515] | NOT MET
* SPFAVYLFFTF [RPGRIP1_Y826_R827L_YF] | NOT MET
* RETSLYKACER [ASB2_Y162_P160S] | MET
* RCLKDYGEFEV [GINS1_Y156] | MET
* LPVHFYGHVEH [PYGM_Y204] | MET
* QCTSAHPLQPE [NANS_Y188_Y188H] | MET
* CNRADYSKLAS [GNE_Y22_P27S] | NOT MET

---

In this section we review reported phosphorylation enrichment values for a set of sequences.
# target desc: Jak2 (UniProt O60674)
# Sequence (O60674 whole entry, looked up): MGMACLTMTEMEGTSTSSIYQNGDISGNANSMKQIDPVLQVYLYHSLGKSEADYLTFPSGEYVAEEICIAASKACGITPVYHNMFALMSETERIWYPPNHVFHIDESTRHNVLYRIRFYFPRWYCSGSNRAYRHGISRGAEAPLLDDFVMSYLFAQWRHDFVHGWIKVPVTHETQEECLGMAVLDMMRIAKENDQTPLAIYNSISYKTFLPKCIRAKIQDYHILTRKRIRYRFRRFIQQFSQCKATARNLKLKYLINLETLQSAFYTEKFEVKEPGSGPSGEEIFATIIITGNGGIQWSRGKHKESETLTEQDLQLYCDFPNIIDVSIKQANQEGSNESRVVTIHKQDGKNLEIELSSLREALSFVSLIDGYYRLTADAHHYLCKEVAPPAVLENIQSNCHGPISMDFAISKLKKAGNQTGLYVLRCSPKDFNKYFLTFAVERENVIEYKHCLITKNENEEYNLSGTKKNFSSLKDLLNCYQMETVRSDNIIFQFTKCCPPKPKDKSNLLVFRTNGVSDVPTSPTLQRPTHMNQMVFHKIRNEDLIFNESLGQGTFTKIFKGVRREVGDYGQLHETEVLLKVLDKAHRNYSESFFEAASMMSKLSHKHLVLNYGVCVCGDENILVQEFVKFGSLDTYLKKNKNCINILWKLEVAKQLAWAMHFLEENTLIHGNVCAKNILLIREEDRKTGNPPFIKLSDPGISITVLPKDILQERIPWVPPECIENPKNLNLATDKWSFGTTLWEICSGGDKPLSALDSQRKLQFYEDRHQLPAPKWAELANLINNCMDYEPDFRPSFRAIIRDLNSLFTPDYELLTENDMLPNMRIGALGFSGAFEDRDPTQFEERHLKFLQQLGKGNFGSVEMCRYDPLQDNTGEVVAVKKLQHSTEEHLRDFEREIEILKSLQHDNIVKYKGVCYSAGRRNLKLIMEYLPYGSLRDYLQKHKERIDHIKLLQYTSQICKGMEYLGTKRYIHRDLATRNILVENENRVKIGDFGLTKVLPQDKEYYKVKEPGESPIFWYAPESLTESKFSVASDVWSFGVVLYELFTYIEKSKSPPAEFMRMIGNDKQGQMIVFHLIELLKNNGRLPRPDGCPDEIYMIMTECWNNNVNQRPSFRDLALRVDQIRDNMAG
# assay comment: phosphorylation enrichment, bacterial display (enrichment ratio); higher = better substrate or ligand; peptides without Tyr show the background
measured endpoint: phosphorylation enrichment

* PRQRRYVYYYS [PTEN_Y174_S170R] | 0.979
* LDFNEYFRGLN [HPRT1_Y198_D201G_YF] | 1.92
* ESFRLYPPVPQ [CYP4B1_Y377] | 0.536
* GIVEEYQLPFF [BMPR1A_Y453_YF] | 1.34
* CDLTDYLMKIL [ACTA1_Y190_R185C] | 1.13
* VDSGVYAVPPP [BCAR1_Y410] | 0.709
* MGSYNYLGFAW [SPTLC2_Y178_R183W] | 3.68
* ASFPLYEPAKM [MKI67_Y340] | 0.484
* GIMEEYQLPYY [BMPR1A_Y453_V450M] | 1.28
* DEDYLYREELA [POR_Y575] | 1.25
* DPFHVYIKNRV [KCNE3_Y95_YF] | 1.08
* EQSNPYMVLDI [ROCK2_Y1197] | 1.24
* PPPPAYDDVAQ [TNK2_Y635] | 1.03
* MTRDIYETDFF [INSR_Y1185_YF] | 1.23
* TWSPKYTLRSH [STRN3_Y474_N471S] | 0.728
* NVVQEYERVII [NPHS2_Y131_K126N] | 0.772
* LVTRSYLLGNS [LMNA_Y646] | 1.27
* ESMNTYLQTSP [NAT1_Y208] | 0.825
* SLALFYRNVFH [RBL1_Y792_K794N_YF] | 1.02
* QRIHNYFEHRF [HCN4_Y554_D553N_YF] | 0.34
* HFGCIYHGTLL [MET_Y1093_V1092I] | 1.38
* PEADKYRLTYA [FGG_Y300] | 1.13
* DKATEYSQYMR [MAX_Y70_I71S] | 0.636
* VHFLVYHHHHH [CACNA1H_Y519_H516Y_YF] | 1.11
* LPEHPYHSRPR [NDUFA8_Y142_N140H] | 0.823
* ADEQIYWQIAA [CSKtide_2014] | 1.58
* KAIMTYVSSFF [ACTN4_Y260_YF] | 0.561
* TIQSMYGCDVG [HLA-B_Y123_L119I] | 0.794
* GQLIVYAPPEW [CNTN6_Y315_F314V] | 0.932
* SGASGYSATST [CERT1_Y143] | 0.539
* HEKFLYFLPAS [DYNC2H1_Y346] | 2.82
* NDTAGYFIIGG [SEL1L3_Y399] | 6.38
* MSPPGYKLVTG [GJA1_Y286] | 0.686
* ILILKYPIEHG [ACTA1_Y71_T68I] | 1.11
* FDKPVYQKTTE [LDLR_Y828_N825K] | 0.691
* WGTAEYDSVVA [MAP1A_Y1883] | 1.18
* ERTIEYLEEVA [HADHA_Y239] | 1.2
* KQELVYPNKKL [OPTN_Y356_T357P] | 0.443
* LSPNMYNSKLW [TARSL2_Y457] | 0.561
* RLSVDYSKKSK [TUBA3E_Y161] | 0.408
* CGTPTCLAPEV [CHEK2_Y390_Y390C] | 0.816
* INQGPYENRSV [ATP6V1B1_Y462] | 0.47
* SLDLSYFTTSS [EMD_Y181_P183T_YF] | 1.04
* DTVRIYDDDFF [UBA1_Y560_E557V] | 1.27
* EALDFCGEVRT [PTEN_Y155_Y155C] | 1.41
* HFVDEYDRTIE [KRAS_Y32_P34R] | 1.67
* TVSTRYTQPQP [SARG_Y259] | 0.605
* MLEAPYVDRNS [F10_Y384_V382A] | 0.739
* LERYIYNREEL [HLA-DPB1_Y59_F64L] | 0.731
* QSPQLYKQLCI [DARS1_Y253_M256L] | 0.875
* PRIHSYRGHLW [VHL_Y112_R107P] | 0.628
* NPQKSCFIRLY [WAS_Y83_Y83C] | 1.07
* MTEEQYIKMNR [ARFGEF2_Y797_K794E] | 1.02
* YRVAGYETQGG [TIA1_Y383] | 0.392
* GRLFAYPDTHC [CAT_Y358_R363C] | 0.785
* KLNNEHLELNY [MME_Y497_Y497H] | 0.619
